Each recorded value in this set is attributed to ChEMBL document CHEMBL5038676.

Target Or Test System: Receptor-interacting serine/threonine-protein kinase 1 (Homo sapiens)
Sequence (Q13546 whole entry, the tested form may be a part): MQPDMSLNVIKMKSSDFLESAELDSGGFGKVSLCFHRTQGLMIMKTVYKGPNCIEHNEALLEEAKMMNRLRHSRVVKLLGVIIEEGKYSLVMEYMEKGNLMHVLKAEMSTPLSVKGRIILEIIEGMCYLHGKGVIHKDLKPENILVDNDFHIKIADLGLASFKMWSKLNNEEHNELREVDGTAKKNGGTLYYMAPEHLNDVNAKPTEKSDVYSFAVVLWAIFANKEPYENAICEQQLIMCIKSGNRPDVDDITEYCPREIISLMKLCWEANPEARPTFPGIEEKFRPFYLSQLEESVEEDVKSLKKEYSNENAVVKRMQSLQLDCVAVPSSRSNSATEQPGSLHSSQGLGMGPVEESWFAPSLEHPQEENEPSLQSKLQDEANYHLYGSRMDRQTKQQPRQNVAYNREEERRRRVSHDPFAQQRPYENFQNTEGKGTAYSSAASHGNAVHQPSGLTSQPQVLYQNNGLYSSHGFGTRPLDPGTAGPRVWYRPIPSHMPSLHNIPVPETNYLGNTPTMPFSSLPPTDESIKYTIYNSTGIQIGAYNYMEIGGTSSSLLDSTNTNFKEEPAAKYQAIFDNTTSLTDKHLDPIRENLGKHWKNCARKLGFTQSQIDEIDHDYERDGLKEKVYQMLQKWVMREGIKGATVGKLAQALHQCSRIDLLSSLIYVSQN
Assay Overview: Inhibition of recombinant N-terminal GST-tagged human RIPK1 (1 to 327 residues) expressed in baculovirus infected Sf9 insect cells preincubated for 40 mins followed by substrate addition and measured after 60 mins by ADP-glo luminescence assay
pEC50: −log10 of the molar value.
# pEC50 listing for each entry below
Measurement Label: pEC50

INSERT INTO measurements (compound_structure_string, op, obs_value) VALUES
  ('O=C(c1ccccc1)C1CN(C(=O)N2N=CC[C@H]2c2cc(F)cc(F)c2)C1', '=', 8.25),
  ('O=C(N1CC(Oc2ccccc2)C1)N1N=CC[C@H]1c1cc(F)cc(F)c1', '=', 8.42),
  ('O=C(N1CC(Sc2ccc(Br)cc2)C1)N1N=CC[C@H]1c1cc(F)cc(F)c1', '=', 8.23),
  ('O=C(N1CC(Oc2ccccc2F)C1)N1N=CC[C@H]1c1cc(F)cc(F)c1', '=', 8.51),
  ('C[C@H]1[C@@H](Oc2ccc(F)cc2)CN1C(=O)N1N=CC[C@H]1c1ccc(Cl)cc1', '>', 8.29);
